# PROCEDURE_DETAILS: in vivo
# MEASUREMENT_CONDITIONS: rat, plasma, iv
Provide the recorded half-life for the entries that follow.
Please reply with the bare figure in min and do not write the unit itself.

Request: Requested field: half-life. Item: CC(C)C(NC(=O)N(C)Cc1ccccn1)C(=O)N[C@@H](Cc1ccccc1)C[C@H](O)[C@H](Cc1ccccc1)NC(=O)OCc1cncnc1 (stereo partly drawn)
Result: 52.2

Request: Try this molecule too: CCc1cccc(COC(=O)NC(C(=O)N[C@@H](Cc2ccccc2)[C@@H](O)C[C@H](Cc2ccccc2)NC(=O)OCc2cccnc2)C(C)C)n1 (stereo partly drawn)
Result: 44.4

Request: Try this molecule too: CC(C)c1nc(CN(C)C(=O)NC(C(=O)N[C@@H](Cc2ccccc2)C[C@H](O)[C@H](Cc2ccccc2)NC(=O)OCc2cncs2)C(C)C)cs1 (stereo partly drawn)
Result: 72

Request: Try this molecule too: Cc1cccc(COC(=O)NC(C(=O)N[C@@H](Cc2ccccc2)[C@@H](O)C[C@H](Cc2ccccc2)NC(=O)OCc2ccoc2)C(C)C)n1 (stereo partly drawn)
Result: 13.2

Request: Try this molecule too: CC(C)c1ncc(COC(=O)NC(C(=O)N[C@@H](Cc2ccccc2)[C@@H](O)C[C@H](Cc2ccccc2)NC(=O)OCc2cccnc2)C(C)C)s1 (stereo partly drawn)
Result: 37.2

Request: Try this molecule too: CCc1ncc(COC(=O)NC(C(=O)N[C@@H](Cc2ccccc2)C[C@H](O)[C@H](Cc2ccccc2)NC(=O)OCc2cccnc2)C(C)C)s1 (stereo partly drawn)
Result: 11.4

Request: Try this molecule too: CC(C)C(NC(=O)OCc1csc(N2CCOCC2)n1)C(=O)N[C@@H](Cc1ccccc1)C[C@H](O)[C@H](Cc1ccccc1)NC(=O)OCc1cccnc1 (stereo partly drawn)
Result: 19.2

Request: Try this molecule too: CCc1nc(COC(=O)NC(C(=O)N[C@@H](Cc2ccccc2)C[C@H](O)[C@H](Cc2ccccc2)NC(=O)OCc2cccnc2)C(C)C)cs1 (stereo partly drawn)
Result: 45

Request: Try this molecule too: CC(C)c1csc(COC(=O)NC(C(=O)N[C@@H](Cc2ccccc2)C[C@H](O)[C@H](Cc2ccccc2)NC(=O)OCc2cncs2)C(C)C)n1 (stereo partly drawn)
Result: 30

Request: Try this molecule too: CC(C)C(NC(=O)OCc1cnccn1)C(=O)N[C@@H](Cc1ccccc1)C[C@H](O)[C@H](Cc1ccccc1)NC(=O)OCc1cccnc1 (stereo partly drawn)
Result: 12

Request: Try this molecule too: CCc1ncc(COC(=O)NC(C(=O)N[C@@H](Cc2ccccc2)[C@@H](O)C[C@H](Cc2ccccc2)NC(=O)OCc2cccnc2)C(C)C)s1 (stereo partly drawn)
Result: 73.8

Request: Try this molecule too: Cc1cnc(COC(=O)NC(C(=O)N[C@@H](Cc2ccccc2)C[C@H](O)[C@H](Cc2ccccc2)NC(=O)OCc2cccnc2)C(C)C)cn1 (stereo partly drawn)
Result: 12.6

Request: Try this molecule too: CC(C)C(NC(=O)OCc1nccs1)C(=O)N[C@@H](Cc1ccccc1)[C@@H](O)C[C@H](Cc1ccccc1)NC(=O)OCc1cccnc1 (stereo partly drawn)
Result: 32.4
